Test system: rabbit skeletal myofibrils (approximately 90% fast fibers)
assay_protocol: Activation of fast skeletal myofibrils (PUMA coupled-enzyme ATPase assay at pCa25)
Format: biochemical
condition_notes: concentration at which the compound increased the enzymatic activity by 40%; calcium at pCa25; PM12 buffer pH 6.8
result_type: Mean AC1.4

> print(dat)
                                smiles.repr  value.measured
1   CC(C)(Nc1ncc(-c2cnc(N)nc2)cn1)c1ncccc1F    D (D=>20 uM)
2  CC(C)(C)OC(=O)NCCC(=O)NCc1cnn(-c2cnc(NC(C)(C)c3ncccc3Cl)nc2)c1    D (D=>20 uM)
3  CC(C)(Nc1ncc(-c2ncc(CN)s2)cn1)c1ncccc1Cl    D (D=>20 uM)
